test: chemical genetic growth profiling, strain panel (AID 1159580);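 note: tested at 20 µM; growth read once vehicle control cultures reached saturation at 30 °C; lower values mean less growth of the strain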; details: S. cerevisiae deletion strains, growth OD, locus YDL101C, strain DUN1, active compounds read low
The whole screen tested about 5,500 compounds, of which about 2,000 (36%) were called active. About 18% were inconclusive and are not listed. The list shows a part of the results.
Hi! Could you tag entries with normalized growth below 1 as satisfied, and those at or above as not satisfied? Much appreciated.

{"COMPOUND": "CS(=O)(=O)OCCCCOS(C)(=O)=O", "ASSIGNED CLASS": "satisfied"}
{"COMPOUND": "CC(C)(C)c1nc(N)sc1Br", "ASSIGNED CLASS": "not satisfied"}
{"COMPOUND": "O=C(O)CCS(=O)(=O)/C=C/c1ccccc1", "ASSIGNED CLASS": "not satisfied"}
{"COMPOUND": "CC(=O)OC/C=C(C)/C=C/C=C(C)/C=C/C1=C(C)CCCC1(C)C", "ASSIGNED CLASS": "not satisfied"}
{"COMPOUND": "CCOC(=O)c1cc(-c2ccc(N)cc2)oc1C", "ASSIGNED CLASS": "satisfied"}
{"COMPOUND": "NC(=NC(=O)c1ccc(Cl)cc1)c1cccs1", "ASSIGNED CLASS": "satisfied"}
{"COMPOUND": "CCOP(=S)(OCC)SCSP(=S)(OCC)OCC", "ASSIGNED CLASS": "satisfied"}
{"COMPOUND": "CC12CCCC(O)(C1)C1CC(C)(C)C1CC2 (stereo unspecified)", "ASSIGNED CLASS": "not satisfied"}
{"COMPOUND": "CC1(C)CC2C1CCC1(C)OC2(C)CCC1O (stereo unspecified)", "ASSIGNED CLASS": "not satisfied"}
{"COMPOUND": "CC(C)C1=CC2=CCC3[C@](C)(CCC[C@]3(C)C(=O)O)C2CC1 (stereo partly specified)", "ASSIGNED CLASS": "satisfied"}
{"COMPOUND": "O=C(Nc1ccc(Cl)cc1Cl)c1cnccc1C(F)(F)F", "ASSIGNED CLASS": "satisfied"}
{"COMPOUND": "COP(=S)(OC)Oc1ccc(SC)c(C)c1", "ASSIGNED CLASS": "not satisfied"}
{"COMPOUND": "O=C(CCSc1cccs1)Nc1cccc(C(F)(F)F)c1", "ASSIGNED CLASS": "satisfied"}
{"COMPOUND": "CCC1CCC(C)N(C(=S)Nc2ccc(Br)cc2C)C1 (stereo unspecified)", "ASSIGNED CLASS": "satisfied"}
{"COMPOUND": "COc1ccc(/C=C/c2cc(O)cc(O)c2)cc1", "ASSIGNED CLASS": "satisfied"}
{"COMPOUND": "Cc1onc(-c2ccccc2Cl)c1-c1nc2ccccc2c(=O)o1", "ASSIGNED CLASS": "satisfied"}
{"COMPOUND": "CCC(=O)c1ccc(-c2ccccc2)cc1", "ASSIGNED CLASS": "satisfied"}
{"COMPOUND": "CC1(C)CC2C1CCC1(C)OC1CCC2(C)O (stereo unspecified)", "ASSIGNED CLASS": "not satisfied"}

----------
test: chemical genetic growth profiling, strain panel (AID 1159580);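 note: tested at 20 µM; growth read once vehicle control cultures reached saturation at 30 °C; lower values mean less growth of the strain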; settings: S. cerevisiae deletion strains, growth OD, locus YKL160W, strain elf1
In all, about 5,500 compounds went through this assay and about 2,000 (36%) were called active. Inconclusive results (about 18%) are left out. Cut-off read from the data, not from the text of the source: active = normalized growth mostly below about 0.91 (no sharp cut-off); inconclusive = no clear call, values can overlap the other calls; inactive = mostly above about 0.92. The list shows a part of the results.
Labels: active, inactive

{"COMPOUND": "CCCN(CCC)C(=O)C(CCC(=O)O)NC(=O)c1ccccc1 (centres undefined)", "ASSIGNED CLASS": "inactive"}
{"COMPOUND": "c1ccc2[nH]c(-c3cscn3)nc2c1", "ASSIGNED CLASS": "inactive"}
{"COMPOUND": "O=C(O)CCC(=O)c1ccc(-c2ccccc2)cc1", "ASSIGNED CLASS": "inactive"}
{"COMPOUND": "CN1CCc2cccc3c2C1Cc1ccc(O)c(O)c1-3 (centres undefined)", "ASSIGNED CLASS": "active"}
{"COMPOUND": "CC1(C)O[C@@H]2[C@@H](CO[C@@]3(COS(N)(=O)=O)OC(C)(C)O[C@@H]23)O1", "ASSIGNED CLASS": "inactive"}
{"COMPOUND": "CC[C@]1(O)CC2CN(CCc3c([nH]c4ccccc34)[C@@](C(=O)OC)(c3cc4c(cc3OC)N(C=O)[C@H]3[C@@](O)(C(=O)OC)[C@H](OC(C)=O)[C@]5(CC)C=CCN6CC[C@]43[C@@H]65)C2)C1 (some centres undefined)", "ASSIGNED CLASS": "inactive"}
{"COMPOUND": "CC1(C)O[C@@H]2CC3C4CCC5=CC(=O)C=C[C@]5(C)C4[C@@H](O)C[C@]3(C)[C@]2(C(=O)CO)O1 (some centres undefined)", "ASSIGNED CLASS": "inactive"}
{"COMPOUND": "NCc1ccc(S(N)(=O)=O)cc1", "ASSIGNED CLASS": "inactive"}
{"COMPOUND": "C[C@H](COc1ccccc1)N[C@H](C)[C@H](O)c1ccc(O)cc1", "ASSIGNED CLASS": "inactive"}
